This section presents molecules with their documented solubility values.
Test Summary: Solubility and pH of saturated solution
Assay type: physicochemical
Condition Set: water

> print(dat)
                         smiles.structure  observed.result
1  OC[C@@H](O)[C@@H](O)[C@H](O)[C@H](O)CO       ~200 mg/mL

Turning now to a further molecule:
Lookup: What value of measured solubility is listed for `CCC(=O)NC[C@@H]1C[C@H]1c1cccc2c1CCO2` ?
Found: ~1 mg/mL
